# target: Metabotropic glutamate receptor 2 (Homo sapiens) (UniProt Q14416)
# Sequence (Q14416 19-872 limits assumed): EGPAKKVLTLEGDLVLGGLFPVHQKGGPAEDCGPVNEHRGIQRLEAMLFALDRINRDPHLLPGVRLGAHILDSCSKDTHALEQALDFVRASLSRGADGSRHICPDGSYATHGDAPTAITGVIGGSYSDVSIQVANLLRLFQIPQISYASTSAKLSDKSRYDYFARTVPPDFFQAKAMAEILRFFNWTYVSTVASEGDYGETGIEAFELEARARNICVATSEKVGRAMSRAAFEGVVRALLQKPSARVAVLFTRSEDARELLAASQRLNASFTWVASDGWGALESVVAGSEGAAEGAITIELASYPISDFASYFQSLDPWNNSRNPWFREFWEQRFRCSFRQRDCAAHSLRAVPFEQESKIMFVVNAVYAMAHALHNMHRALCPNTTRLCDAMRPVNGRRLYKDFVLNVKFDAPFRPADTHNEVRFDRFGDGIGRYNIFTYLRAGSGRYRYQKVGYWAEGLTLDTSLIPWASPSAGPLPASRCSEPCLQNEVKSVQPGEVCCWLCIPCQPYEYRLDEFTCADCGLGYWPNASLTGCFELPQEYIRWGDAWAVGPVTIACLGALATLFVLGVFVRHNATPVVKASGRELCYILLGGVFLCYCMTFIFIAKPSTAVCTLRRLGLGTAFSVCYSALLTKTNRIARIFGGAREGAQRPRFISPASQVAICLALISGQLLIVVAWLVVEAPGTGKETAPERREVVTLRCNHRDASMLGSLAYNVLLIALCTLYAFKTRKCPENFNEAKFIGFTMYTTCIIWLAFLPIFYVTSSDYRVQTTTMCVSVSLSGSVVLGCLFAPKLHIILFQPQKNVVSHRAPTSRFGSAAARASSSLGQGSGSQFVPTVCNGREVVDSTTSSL
# measurement_description: Agonist activity at mGluR2 expressed in CHO cells assessed as decrease in cAMP accumulation at 10 uM
# Type: functional, cell-based
The source made the active and inactive calls. No cut-off for these calls is given here.
experimental_endpoint: Activity

- N[C@@]1(C(=O)O)C[C@H](C(=O)O)C[C@@H]1C(=O)O: inactive
- N[C@]1(C(=O)O)C[C@H](C(=O)O)C[C@@H]1C(=O)O: inactive
- N[C@]1(C(=O)O)C[C@@H](C(=O)O)C[C@H]1C(=O)O: inactive
- N[C@@]1(C(=O)O)C[C@@H](C(=O)O)C[C@H]1C(=O)O: 30%
